TARGET OR SYSTEM: Proteasome subunit beta (Trypanosoma cruzi)
Sequence (whole entry): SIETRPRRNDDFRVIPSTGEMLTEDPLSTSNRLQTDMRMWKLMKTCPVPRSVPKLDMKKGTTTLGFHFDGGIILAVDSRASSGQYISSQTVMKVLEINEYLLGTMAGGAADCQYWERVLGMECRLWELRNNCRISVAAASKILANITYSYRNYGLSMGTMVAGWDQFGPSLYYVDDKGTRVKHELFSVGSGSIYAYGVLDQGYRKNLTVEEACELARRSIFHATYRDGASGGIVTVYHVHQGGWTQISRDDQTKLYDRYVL
ASSAY INFO: Trypanosoma cruzi proteasome chymotrypsin-like activity (TcProtChymo) assay.
Format: functional
Set-up: scale not given: in the data most compounds retested in dose-response had high values
EXPERIMENTAL CONDITIONS: 9.37 µM
OBSERVED PROPERTY: Percent Effect (%)
Note: unit % is implicit; provide only the numeric part.

Recorded Percent Effect, per entry:
[
  {
    "MOLECULE": "COc1ccc(C2(CNC(C)c3nnc(C)o3)CCCCC2)cc1 (stereo not given)",
    "TARGET OR SYSTEM": "Proteasome subunit beta (Trypanosoma cruzi)",
    "Percent Effect / %": 6.03
  },
  {
    "MOLECULE": "COc1cc(C)c(C(C)NC(=O)Nc2nnc(C)s2)cc1OC (stereo not given)",
    "TARGET OR SYSTEM": "Proteasome subunit beta (Trypanosoma cruzi)",
    "Percent Effect / %": 7.64
  },
  {
    "MOLECULE": "c1ccc(CCN2CCN(c3ccc4nncn4n3)CC2)nc1",
    "TARGET OR SYSTEM": "Proteasome subunit beta (Trypanosoma cruzi)",
    "Percent Effect / %": 3.72
  },
  {
    "MOLECULE": "Cc1occc1C(=O)N1CCC2(CCCN(CC3CCC3)C2=O)C1 (stereo not given)",
    "TARGET OR SYSTEM": "Proteasome subunit beta (Trypanosoma cruzi)",
    "Percent Effect / %": 13.3
  },
  {
    "MOLECULE": "CC1CCN(S(=O)(=O)NCc2ccccc2Cn2cncn2)CC1",
    "TARGET OR SYSTEM": "Proteasome subunit beta (Trypanosoma cruzi)",
    "Percent Effect / %": 13.4
  },
  {
    "MOLECULE": "CCC(=O)NCc1cc(Br)ccc1OC(F)F",
    "TARGET OR SYSTEM": "Proteasome subunit beta (Trypanosoma cruzi)",
    "Percent Effect / %": 13.6
  }
]

Record "Cc1ccc(-n2nnc(CC(=O)N3CCSCC3)c2C)cc1" . Reported Percent Effect: 11.2

Record O=C(c1ccsc1)N1CCCC(c2cc(C(F)(F)F)[nH]n2)C1 (stereo not given) . Reported Percent Effect: -2.12

Record Cc1cnn(CC2CCCCN2C(=O)Cc2csc(C)n2)c1 (stereo not given) . Reported Percent Effect: 6.17

Record "CC(C)n1c(=O)nc2n1C(=O)N(c1ccccc1)C2" . Reported Percent Effect: 14.7

Record "CC(=O)N1CCC[C@H]1C(=O)NCCOc1cccc(Cl)c1" . Reported Percent Effect: 13.7

Record CC(CNC(=O)c1ccccc1Oc1cccnc1)N(C)C (stereo not given) . Reported Percent Effect: 5.69

Record "O=C(O)C1(Cc2cc(-c3cccc(F)c3)no2)CCOCC1" . Reported Percent Effect: 7.8
